Data credit: patent US6897214B2

- Tested on: EGF receptor tyrosine kinase (Homo sapiens, UniProt P00533)
- Construct: Receptor tyrosine kinase was obtained in partially purified form from A-431 cells; endogenous in cells
- Sequence (P00533 25-1210): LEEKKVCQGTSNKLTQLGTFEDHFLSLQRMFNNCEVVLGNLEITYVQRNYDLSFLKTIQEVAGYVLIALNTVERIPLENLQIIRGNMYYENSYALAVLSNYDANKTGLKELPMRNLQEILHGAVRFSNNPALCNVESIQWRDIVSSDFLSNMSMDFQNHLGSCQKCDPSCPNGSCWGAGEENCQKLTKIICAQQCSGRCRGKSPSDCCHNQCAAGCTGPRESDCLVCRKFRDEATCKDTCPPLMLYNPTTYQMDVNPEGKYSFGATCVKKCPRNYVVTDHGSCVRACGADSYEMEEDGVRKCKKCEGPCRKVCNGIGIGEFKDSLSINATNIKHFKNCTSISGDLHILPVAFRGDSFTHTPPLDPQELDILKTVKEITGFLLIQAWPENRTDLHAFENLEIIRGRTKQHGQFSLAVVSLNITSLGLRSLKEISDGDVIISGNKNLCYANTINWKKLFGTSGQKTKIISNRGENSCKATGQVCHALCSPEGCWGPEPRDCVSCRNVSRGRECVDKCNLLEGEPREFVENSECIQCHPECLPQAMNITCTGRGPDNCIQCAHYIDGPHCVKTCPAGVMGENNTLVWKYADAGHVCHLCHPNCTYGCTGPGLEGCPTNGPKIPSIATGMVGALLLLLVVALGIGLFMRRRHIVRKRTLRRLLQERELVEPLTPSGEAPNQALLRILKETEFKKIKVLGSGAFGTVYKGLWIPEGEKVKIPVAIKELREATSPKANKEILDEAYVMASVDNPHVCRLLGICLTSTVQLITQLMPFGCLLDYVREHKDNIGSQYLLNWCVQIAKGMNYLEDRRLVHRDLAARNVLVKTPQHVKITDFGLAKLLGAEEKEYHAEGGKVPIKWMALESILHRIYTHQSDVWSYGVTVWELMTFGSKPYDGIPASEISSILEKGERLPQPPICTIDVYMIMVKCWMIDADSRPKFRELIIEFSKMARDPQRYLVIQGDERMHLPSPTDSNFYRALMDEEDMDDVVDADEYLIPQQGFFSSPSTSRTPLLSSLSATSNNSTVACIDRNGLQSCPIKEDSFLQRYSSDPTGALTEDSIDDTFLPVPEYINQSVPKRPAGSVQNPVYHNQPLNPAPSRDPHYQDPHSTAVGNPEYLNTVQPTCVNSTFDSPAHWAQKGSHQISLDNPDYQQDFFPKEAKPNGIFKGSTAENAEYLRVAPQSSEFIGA
- Assay method text: Test (a): in vitro inhibition of the enzyme EGF receptor tyrosine kinase
- Condition summary: enzyme partially purified from A-431 cells
- Description: (a) An in vitro assay which determines the ability of a test compound to inhibit the enzyme EGF receptor tyrosine kinase. […] The test compound/EGF mixture solution (5 μl) was added to the test enzyme solution (10 μl) and the mixture was incubated at 0-4° C. for 30 minutes. […] Radioactivity present in the filter paper was measured using a liquid scintillation counter (Sequence A). […] Receptor tyrosine kinase inhibition was calculated as follows: [formula] […]
Measured metric: IC50
Don't forget the unit after the value.

## Input Sample `Fc1ccc(Nc2ncnc3ccc(-c4ccc(CCN5CCOCC5)s4)cc23)cc1Cl` — what was its IC50?
## Output 40 nM

====

Overview of recorded melting point for various compounds

Cl.O=C(Nc1ccc2ncnc(Nc3ccc(F)c(Cl)c3)c2c1)c1ccno1	> 250 °C

Then there is this compound:
## Input Sample `Cc1cc(Nc2ncnc3ccc(-c4cccs4)cc23)ccc1OCc1ccccn1` — what was its melting point?
## Output 205 to 206 °C

====

Overview of recorded melting point for various molecules

Cc1cccc(Nc2ncnc3ccc(CSc4nc5ccccc5[nH]4)cc23)c1	123 to 129 °C

## Input Sample `Fc1ccc(Nc2ncnc3ccc(-c4ccsc4)cc23)cc1Cl` — what was its melting point?
## Output 195 to 197 °C

## Input Entry `Cc1cccc(Nc2ncnc3ccc(CSc4c[nH]nn4)cc23)c1` please
## Output 64 to 68 °C

## Input Entry `Fc1ccc(Nc2ncnc3ccc(-c4ccco4)cc23)cc1Cl` please
## Output 232 to 234 °C

## Input Entry `Fc1ccc(Nc2ncnc3ccc(-c4cccs4)cc23)cc1Cl` please
## Output 205 to 208 °C

## Input Entry `Cc1cccc(Nc2ncnc3ccc(CSc4nccn4C)cc23)c1` please
## Output 137 to 139 °C

## Input Entry `N#Cc1ccc(-c2ccc3ncnc(Nc4ccc(F)c(Cl)c4)c3c2)cc1` please
## Output > 250 °C

## Input Entry `Fc1ccc(Nc2ncnc3ccc(NCc4cccs4)cc23)cc1Cl` please
## Output 193 to 195 °C

## Input Entry `Cc1cccc(Nc2ncnc3ccc(-c4ccccc4)cc23)c1` please
## Output 207 to 209 °C

====

Measured metric: melting point

Here are 4 molecules together with their reported answers.
Cc1cc(Nc2ncnc3ccc(-c4ccoc4)cc23)ccc1OCc1ccccn1	206 to 208 °C
CNc1cc2ncnc(Nc3ccc(F)c(Cl)c3)c2cc1NC(=O)c1cccnc1	> 260 °C
Cc1cccc(Nc2ncnc3ccc(NCc4ccsc4)cc23)c1	207 to 208 °C
Cc1cccc(Nc2ncnc3ccc(NS(=O)(=O)c4cn(C)cn4)cc23)c1	> 250 °C

## Input Sample `Cc1cccc(Nc2ncnc3ccc(Nc4ncc[nH]4)cc23)c1` — what was its melting point?
## Output 256 to 258 °C

## Input Entry `Cl.O=C(Nc1ccc2ncnc(Nc3ccc(F)c(Cl)c3)c2c1)c1cccs1` please
## Output > 250 °C

## Input Entry `Cc1cccc(Nc2ncnc3ccc(CSc4ncc[nH]4)cc23)c1` please
## Output 217 to 219 °C
